# measured-target: T1, cynomolgus monkey GPRC5D (cynomolgus monkey)
# T1 construct: whole, on cells; HEK293T-cynoGPRC5D cells; also called cynoGPRC5D
# protocol-summary: FACS, HEK293T-cynoGPRC5D cells; further: test concentration or dose not given here
quantity: MFI

Hello, please tell me recorded MFI for this one: 15D6G2 (antibody, V domains shown, Mouse monoclonal antibody from hybridoma subclone) VH: EVQLVESGGDLVKPGGYLRLSCAASGFTFSSHGMSWVRQTPDKRLEWVATISSGGRNTYYPDSVKGRFTISRDNAKNILYLQMSSLKSEDTAMFYCTRHSGDAMDYWGQGTSVTVSS VL: DILLTQSPAILSVSPGERVSFSCRASQSIGTNIHWYQQRTNGSPRLLIKYASESISGIPSRFSGSGSGTDFTLSINSVESEDIADYYCQQSKSWPTFGGGTKLEIK
7760
